Values from patent EP4653441A1

Total Impurity (%) reference
# TEST NAME: Stability test of the salts (high temperature / high humidity, 14 days)
# Type: physicochemical
# CONDITIONS USED: 60°C/14 days (aluminum foil pouch)

Past entries and their recorded results:
{"columns": ["COMPOUND", "Total Impurity (%)"],
 "data": [
  ["CN1CC2CN(c3ccc4ccccc4c3)CC2C1 (single isomer, unassigned) [Example 4]", "0.24%"],
  ["CN1CC2CN(c3ccc4ccccc4c3)CC2C1 (single isomer, unassigned) [Example 7]", "0.20%"]
]}

compound CN1CC2CN(c3ccc4ccccc4c3)CC2C1 (single isomer, unassigned) [Example 2] , Total Impurity (%) observed: 0.36%

compound CN1CC2CN(c3ccc4ccccc4c3)CC2C1 (single isomer, unassigned) [Example 1] , Total Impurity (%) observed: 0.19%

###

Total Impurity (%) reference
# TEST NAME: Stability test of the salts (high temperature / high humidity, 14 days)
# Format: physicochemical
# CONDITIONS USED: 40°C/75% RH/14 days
Write it as a number; the unit % goes unstated.

compound CN1CC2CN(c3ccc4ccccc4c3)CC2C1 (single isomer, unassigned) [Example 4] , Total Impurity (%) observed: 0.44

###

# TEST NAME: Solubility test in water by HPLC (external standard)
# Assay type: physicochemical
# CONDITIONS USED: 37°C, shaken 30 minutes
Solubility reference

Past entries and their recorded results:
{"columns": ["COMPOUND", "Solubility"],
 "data": [
  ["CN1CC2CN(c3ccc4ccccc4c3)CC2C1 (single isomer, unassigned) [Example 4]", "3.5 mg/mL"],
  ["CN1CC2CN(c3ccc4ccccc4c3)CC2C1 (single isomer, unassigned) [Example 5]", "4 mg/mL"],
  ["CN1CC2CN(c3ccc4ccccc4c3)CC2C1 (single isomer, unassigned) [Example 7]", "15 mg/mL"]
]}

compound CN1CC2CN(c3ccc4ccccc4c3)CC2C1 (single isomer, unassigned) [Example 2] , Solubility observed: 11 mg/mL

compound CN1CC2CN(c3ccc4ccccc4c3)CC2C1 (single isomer, unassigned) [Example 1] , Solubility observed: >100 mg/mL

###

# TEST NAME: Stability test of the salts (high temperature / high humidity, 14 days)
# Type: physicochemical
# CONDITIONS USED: Day 0
Total Impurity (%) reference
Write it as a number; the unit % goes unstated.

Past entries and their recorded results:
{"columns": ["MOLECULE", "Total Impurity (%)"],
 "data": [
  ["CN1CC2CN(c3ccc4ccccc4c3)CC2C1 (single isomer, unassigned) [Example 7]", 0.14],
  ["CN1CC2CN(c3ccc4ccccc4c3)CC2C1 (single isomer, unassigned) [Example 4]", 0.21],
  ["CN1CC2CN(c3ccc4ccccc4c3)CC2C1 (single isomer, unassigned) [Example 1]", 0.13]
]}

molecule CN1CC2CN(c3ccc4ccccc4c3)CC2C1 (single isomer, unassigned) [Example 2] , Total Impurity (%) observed: 0.35

###

# TEST NAME: Stability test of the salts (high temperature / high humidity, 14 days)
# Type: physicochemical
# CONDITIONS USED: 60°C/14 days
Total Impurity (%) reference
Write it as a number; the unit % goes unstated.

Past entries and their recorded results:
{"columns": ["COMPOUND", "Total Impurity (%)"],
 "data": [
  ["CN1CC2CN(c3ccc4ccccc4c3)CC2C1 (single isomer, unassigned) [Example 1]", 0.19],
  ["CN1CC2CN(c3ccc4ccccc4c3)CC2C1 (single isomer, unassigned) [Example 4]", 0.22],
  ["CN1CC2CN(c3ccc4ccccc4c3)CC2C1 (single isomer, unassigned) [Example 7]", 0.18]
]}

Next up:
compound CN1CC2CN(c3ccc4ccccc4c3)CC2C1 (single isomer, unassigned) [Example 2] , Total Impurity (%) observed: 0.37

###

# TEST NAME: Hygroscopicity measurement
# Format: physicochemical
# CONDITIONS USED: 25°C, 92.5% RH, 24 hours
# Experimental: 3. Hygroscopicity Measurement Method: The test sample was placed for 24 hours at 25°C and 92.5% RH, and then the weight gain by moisture absorption was measured. 4. Stability Test Method: The test sample was placed in a suitable clean container for 14 days under a high temperature (60°C), or a high humidity (40°C, a relative humidity of 75%) condition, and it was sampled on day 0 and day 14 to detect the purity and impurities of the test sample.
PROPERTY NAME: weight gain by moisture absorption (%)
Write it as a number; the unit % goes unstated.

{"columns": ["COMPOUND", "weight gain by moisture absorption / %"],
 "data": [
  ["CN1CC2CN(c3ccc4ccccc4c3)CC2C1 (single isomer, unassigned) [Example 4]", 6.74],
  ["CN1CC2CN(c3ccc4ccccc4c3)CC2C1 (single isomer, unassigned) [Example 6]", 1.26],
  ["CN1CC2CN(c3ccc4ccccc4c3)CC2C1 (single isomer, unassigned) [Example 2]", 0.74],
  ["CN1CC2CN(c3ccc4ccccc4c3)CC2C1 (single isomer, unassigned) [Example 1]", 1.6],
  ["CN1CC2CN(c3ccc4ccccc4c3)CC2C1 (single isomer, unassigned) [Example 7]", 0.64]
]}

Next up:
compound CN1CC2CN(c3ccc4ccccc4c3)CC2C1 (single isomer, unassigned) [Example 5] , weight gain by moisture absorption observed: 1.21

###

Total Impurity (%) reference
# TEST NAME: Stability test of the salts (high temperature / high humidity, 14 days)
# Type: physicochemical
# CONDITIONS USED: 40°C/75% RH/14 days
Write it as a number; the unit % goes unstated.

{"columns": ["COMPOUND", "UNITS LABEL", "Total Impurity (%)"],
 "data": [
  ["CN1CC2CN(c3ccc4ccccc4c3)CC2C1 (single isomer, unassigned) [Example 1]", "%", 0.15],
  ["CN1CC2CN(c3ccc4ccccc4c3)CC2C1 (single isomer, unassigned) [Example 7]", "%", 0.17]
]}

Next up:
compound CN1CC2CN(c3ccc4ccccc4c3)CC2C1 (single isomer, unassigned) [Example 2] , Total Impurity (%) observed: 0.31
